Kindly state IC50 for each of the entries shown.
# targetOfAssay: renin (Homo sapiens)
# Construct: This test measures the formation of angiotensin I in human plasma
# Sequence (P00797 67-406): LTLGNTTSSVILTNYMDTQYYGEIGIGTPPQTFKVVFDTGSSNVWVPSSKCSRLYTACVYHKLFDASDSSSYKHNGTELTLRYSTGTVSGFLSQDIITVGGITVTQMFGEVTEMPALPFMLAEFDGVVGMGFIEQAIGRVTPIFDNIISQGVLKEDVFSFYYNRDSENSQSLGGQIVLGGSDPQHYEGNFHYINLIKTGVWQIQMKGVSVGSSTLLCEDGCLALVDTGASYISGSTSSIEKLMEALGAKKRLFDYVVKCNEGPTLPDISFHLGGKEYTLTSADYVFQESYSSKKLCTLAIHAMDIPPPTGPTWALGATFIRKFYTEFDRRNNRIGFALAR
# experimentDescription: formation of angiotensin I in human plasma (Nussberger et al.), radioimmunoassay
# conditionsUsed: angiotensin I determined by radioimmunoassay, read-out: IC50, inhibition of the formation of angiotensin I

smilesData	result
COCCCN1CCOc2ccc(CO[C@H]3CN[C@@H](CN4CCOCC4)C[C@@H]3c3ccc(COC[C@@H](C)COC)cc3)cc21	0.1 to 10 nM

Shifting focus to the compound that follows.
Input: Item under review: COCCCN1CCOc2ccc(CO[C@H]3CN[C@@H](Cc4nncn4C)C[C@@H]3c3ccc(COC[C@@H](C)COC)cc3)cc21 . Reported IC50?
Output: 0.1 to 10 nM
